- measurement target: GORASP2, Q9H8Y8
- experiment description: holdup assay
- Design: key: below the threshold = too weak to quantify, mostly under pKd 3.1 to 4
- experimental context: plain residues with an end cap or a label only (N-terminal biotin on a linker: ado-ado)
Listed below: pKd values for each entry.

binder | pKd
QKNKDKEYYV [NRXN3_rs746444206, Q9Y4C0] | 4.47
TETASVCTKV [SLC23A1, Q9UHI7] | 4.17
